# pIC50 annotations
# test_system: phosphorylated form of full length BTK (active BTK) (Homo sapiens (Human), UniProt Q06187)
# Sequence (Q06187 whole entry): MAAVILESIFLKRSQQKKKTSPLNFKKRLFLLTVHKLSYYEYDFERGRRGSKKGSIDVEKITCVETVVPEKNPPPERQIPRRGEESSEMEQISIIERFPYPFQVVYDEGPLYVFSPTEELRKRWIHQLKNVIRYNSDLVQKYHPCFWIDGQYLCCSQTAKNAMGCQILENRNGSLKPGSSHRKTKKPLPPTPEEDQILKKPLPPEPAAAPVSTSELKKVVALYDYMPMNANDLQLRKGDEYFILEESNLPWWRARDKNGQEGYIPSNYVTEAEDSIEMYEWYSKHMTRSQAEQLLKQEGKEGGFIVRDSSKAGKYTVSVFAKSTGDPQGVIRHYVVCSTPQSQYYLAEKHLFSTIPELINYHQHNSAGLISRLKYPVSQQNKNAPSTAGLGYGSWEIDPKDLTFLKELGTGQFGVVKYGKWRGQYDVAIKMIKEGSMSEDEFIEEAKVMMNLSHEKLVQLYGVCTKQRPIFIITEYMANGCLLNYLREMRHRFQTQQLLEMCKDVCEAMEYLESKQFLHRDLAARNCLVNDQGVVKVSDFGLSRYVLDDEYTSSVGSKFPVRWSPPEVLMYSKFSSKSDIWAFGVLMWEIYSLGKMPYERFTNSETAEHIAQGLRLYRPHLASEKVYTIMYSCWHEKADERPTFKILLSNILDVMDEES
# protocol_details: Mobility shift assay (MSA, Caliper LabChip), active BTK assay
# Type: biochemical
# condition_summary: Assay type B (MSA using active BTK)
Schema: pIC50 number; meaning minus log10 of the concentration expressed in molar units.

molecule | test_system | pIC50
CC(=O)N[C@@H](C)[C@@H]1CC[C@@H](Nc2ncnc3[nH]cc(C(=O)c4ccccc4C)c23)CO1 | phosphorylated form of full length BTK (active BTK) (Homo sapiens (Human), UniProt Q06187) | 8.23
O=C(c1ccc(Oc2ccccc2)cc1)c1c[nH]c2ncnc(N[C@@H]3CC[C@@H](C(=O)NC[C@@H](O)CO)OC3)c12 | phosphorylated form of full length BTK (active BTK) (Homo sapiens (Human), UniProt Q06187) | 8.60

Next:
// pIC50 value for CC(O)CCCCC(=O)N[C@H]1CC[C@@H](Nc2ncnc3[nH]cc(C(=O)c4ccc(Oc5ccccc5)cc4Cl)c23)CC1 (mixture of isomers) : 8.54
